- experimental.target: cloned human dopamine D3 receptors (Homo sapiens, UniProt P35462)
- Construct: expressed in transfected cells
- Sequence (P35462 whole entry): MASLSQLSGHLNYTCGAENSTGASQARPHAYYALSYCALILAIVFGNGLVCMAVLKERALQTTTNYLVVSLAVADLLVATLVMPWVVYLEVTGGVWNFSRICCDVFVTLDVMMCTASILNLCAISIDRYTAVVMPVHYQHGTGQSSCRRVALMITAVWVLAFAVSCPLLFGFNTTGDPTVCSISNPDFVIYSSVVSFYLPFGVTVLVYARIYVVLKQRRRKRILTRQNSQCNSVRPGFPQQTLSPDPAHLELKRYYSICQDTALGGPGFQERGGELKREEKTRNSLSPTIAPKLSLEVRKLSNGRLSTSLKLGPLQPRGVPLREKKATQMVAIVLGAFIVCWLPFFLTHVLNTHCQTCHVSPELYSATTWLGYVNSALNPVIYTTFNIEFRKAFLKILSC
- experiment: [N-Methyl-3H]Spiroperidol binding to cloned human dopamine D3 receptors
- condition.parameters: Table III; read-out: d3Ki
- Procedure: [N-Methyl-^3H]Spiroperidol Binding to Cloned Human Dopamine D3 Receptors […] The 96-Well Packard Unifilters GF/B are incubated for >1 h at 25° C. in 0.1% polyethylamine (from 3,b). […] The plates are then shaken on an orbital shaker for 1 h and placed in the Packard Topcount and counted for at least 5 minutes for each point. […]
pKi: −log10 of the molar value.
Kind request: treat 8 as inclusive, so pKi at 8 or higher is Criterion met, anything lower is Criterion not met.

# molecule, class
records = [
    ("O=C(NCCCCN1CCN(c2c(Cl)sc3cc(F)ccc23)CC1)NCc1ccccc1 [compound 815177]", "Criterion not met"),
    ("COc1c(Cl)cccc1NC(=O)NCCCCN1CCC(c2noc3ccsc23)CC1 [compound 816771]", "Criterion not met"),
    ("Cc1ccc(NC(=O)NCCCCN2CCN(c3csc4cc(C(F)(F)F)ccc34)CC2)cc1 [compound 815997]", "Criterion met"),
    ("COC(=O)C(Cc1ccccc1)NC(=O)NCCCCN1CCC(c2noc3ccsc23)CC1 (centres unmarked) [compound 815944]", "Criterion not met"),
    ("O=C(NCCCCN1CCC(c2noc3ccsc23)CC1)Nc1ccc(F)c([N+](=O)[O-])c1 [compound 816557]", "Criterion not met"),
    ("CCOc1ccccc1NC(=O)NCCCCN1CCC(c2noc3ccsc23)CC1 [compound 816764]", "Criterion not met"),
    ("COc1c(Cl)cccc1NC(=O)NCCCCN1CCC(c2noc3ccsc23)CC1 [compound 816883]", "Criterion not met"),
    ("O=C(NCCCCN1CCC(c2noc3ccsc23)CC1)Nc1cc(C(F)(F)F)ccc1Cl [compound 815936]", "Criterion met"),
    ("CC(=O)c1ccc(NC(=O)NCCCCN2CCN(c3c(-c4ccccc4)sc4cc(F)ccc34)CC2)cc1 [compound 816226]", "Criterion not met"),
    ("O=C(NCCCCN1CCC(c2noc3ccsc23)CC1)Nc1ccc(-c2ccccc2)cc1 [compound 815387]", "Criterion not met"),
    ("COc1ccc(NC(=O)NCCCCN2CCC(c3noc4ccsc34)CC2)c(OC)c1 [compound 816567]", "Criterion not met"),
    ("CC(C)c1ccc(NC(=O)NCCCCN2CCN(c3c(Cl)sc4cc(F)ccc34)CC2)cc1 [compound 815167]", "Criterion not met"),
    ("CCCCOc1ccc(NC(=O)NCCCCN2CCC(c3noc4ccsc34)CC2)cc1 [compound 816564]", "Criterion not met"),
    ("O=C(NCCCCN1CCN(c2c(Cl)sc3cc(F)ccc23)CC1)Nc1ccc(F)cc1 [compound 815164]", "Criterion not met"),
    ("CCNC(=O)NCCCCN1CCC(c2noc3ccsc23)CC1 [compound 815940]", "Criterion not met"),
    ("CC(=O)c1ccc(NC(=O)NCCCCN2CCN(c3csc4cc(C(F)(F)F)ccc34)CC2)cc1 [compound 815993]", "Criterion met"),
    ("Cc1ccccc1NC(=O)NCCCCN1CCN(c2csc3cc(C(F)(F)F)ccc23)CC1 [compound 816007]", "Criterion not met"),
    ("O=C(NCCCCN1CCN(c2c(Cl)sc3cc(F)ccc23)CC1)Nc1ccc(Oc2ccccc2)cc1 [compound 815159]", "Criterion not met"),
]

###

- experimental.target: cloned human dopamine D3 receptors (Homo sapiens)
- Construct: expressed in transfected cells
- experiment: [N-Methyl-3H]Spiroperidol binding to cloned human dopamine D3 receptors
- condition.parameters: Table III; read-out: d3Ki
Examples of compounds with documented Ki follow.
value.type: Ki (nM)

# compound, value.type, observed.value
records = [
    ("O=C(NCCCCN1CCN(c2csc3cc(C(F)(F)F)ccc23)CC1)Nc1ccc(Br)cc1 [compound 816000]", "Ki", 6.31),
    ("O=C(NCCCCN1CCC(c2noc3ccsc23)CC1)Nc1cc(C(F)(F)F)cc(C(F)(F)F)c1 [compound 816881]", "Ki", 23.8),
    ("O=C(NCCCCN1CCC(c2noc3ccsc23)CC1)Nc1ccccc1Cl [compound 815949]", "Ki", 13.6),
    ("COc1ccc(NC(=O)NCCCCN2CCN(c3csc4cc(C(F)(F)F)ccc34)CC2)cc1 [815994A]", "Ki", 5.94),
    ("O=C(NCCCCN1CCN(c2c(Cl)sc3cc(F)ccc23)CC1)Nc1ccccc1C(F)(F)F [compound 815173]", "Ki", 46.5),
    ("O=C(NCCCCN1CCC(c2noc3ccsc23)CC1)NC12CC3CC(CC(C3)C1)C2 [compound 815392]", "Ki", 24),
    ("O=C(NCCCCN1CCC(c2noc3ccsc23)CC1)Nc1ccc([N+](=O)[O-])cc1 [compound 816562]", "Ki", 6.99),
    ("O=C(NCCCCN1CCC(c2noc3ccsc23)CC1)Nc1ccccc1Br [compound 815939]", "Ki", 19.1),
]

###

- experimental.target: cloned human dopamine D3 receptors (Homo sapiens, UniProt P35462)
- Construct: expressed in transfected cells
- experiment: [N-Methyl-3H]Spiroperidol binding to cloned human dopamine D3 receptors
pKi: −log10 of the molar value.
value.type: pKi

# molecule, observed.value
data = [
    ("Cc1csc2c(C3CCN(CCCCN(C(=O)Nc4cccc(F)c4)C(=O)Nc4cccc(F)c4)CC3)noc12", 7.02),
    ("O=C(NCCCn1ccnc1)NC[C@@H]1C[C@H]1CN1CCN(c2csc3cc(C(F)(F)F)ccc23)CC1", 9.62),
    ("O=C(NC[C@@H]1C[C@H]1CN1CCN(c2csc3cc(C(F)(F)F)ccc23)CC1)Nc1ccccc1C(F)(F)F", 7.40),
    ("O=C(NCCCCN1CCCN(c2noc3ccsc23)CC1)Nc1cccc(C(F)(F)F)c1", 6.65),
    ("CC(=O)c1cccc(NC(=O)NCCCCN2CCCN(c3csc4cc(F)ccc34)CC2)c1", 8.60),
    ("Cc1ccc(NC(=O)NCCCCN2CCCN(c3noc4ccsc34)CC2)cc1", 6.86),
    ("O=C(NCCCCN1CCCN(c2noc3ccsc23)CC1)Nc1cccc(Cl)c1", 6.42),
    ("O=C(NCCCCN1CCCN(c2csc3cc(F)ccc23)CC1)Nc1cccc(Br)c1", 7.96),
    ("O=C(NCCCCN1CCN(c2noc3ccsc23)CC1)Nc1ccc(Cl)cc1", 7.43),
    ("O=C(NCCCCN1CCN(c2noc3ccsc23)CC1)Nc1cc(C(F)(F)F)cc(C(F)(F)F)c1", 6.75),
    ("O=C(NCCCCN1CCCN(c2noc3ccsc23)CC1)Nc1cc(Cl)cc(Cl)c1", 7.28),
    ("O=C(NCCCCN1CCCN(c2csc3cc(F)ccc23)CC1)Nc1ccc(Cl)cc1", 7.85),
    ("O=C(NCCCCN1CCCN(c2csc3cc(F)ccc23)CC1)Nc1ccc(F)cc1", 8.18),
    ("O=C(NC[C@@H]1C[C@H]1CN1CCN(c2csc3cc(C(F)(F)F)ccc23)CC1)Nc1cccc(F)c1", 7.21),
    ("O=C(NCCCCN1CCCN(c2csc3cc(F)ccc23)CC1)Nc1ccc(OC(F)(F)F)cc1", 7.46),
    ("O=C(NC[C@@H]1C[C@H]1CN1CCN(c2csc3cc(C(F)(F)F)ccc23)CC1)Nc1cccc(Cl)c1", 7.29),
    ("CCOc1ccc(NC(=O)NCCCCN2CCN(c3nn(C(=O)Nc4ccc(OCC)cc4)c4ccsc34)CC2)cc1", 7.32),
    ("Cc1ccc(NC(=O)NCCCCN2C3CCC2CC(c2noc4cc(F)ccc24)C3)cc1 (stereo not shown)", 6.59),
    ("O=C(NCCCCN1CCCN(c2noc3ccsc23)CC1)Nc1cc(C(F)(F)F)cc(C(F)(F)F)c1", 6.26),
    ("N#Cc1cccc(NC(=O)NCCCCN2CCN(c3noc4ccsc34)CC2)c1", 6.99),
    ("COc1ccc(NC(=O)NCCCCN2CCCN(c3csc4cc(F)ccc34)CC2)cc1", 10.03),
    ("O=C(NCCCCN1CCCN(c2csc3cc(F)ccc23)CC1)Nc1cc(C(F)(F)F)cc(C(F)(F)F)c1", 7.18),
    ("O=C(Nc1ccc(OC(F)(F)F)cc1)N(Cc1ccccc1)CC1CC1CN1CCCN(c2csc3cc(F)ccc23)CC1 (racemic)", 7.38),
    ("COc1ccc(NC(=O)NCCCCN2CCN(c3noc4ccsc34)CC2)cc1", 6.92),
    ("O=C(NCCCCN1CCN(c2noc3ccsc23)CC1)Nc1ccc(Br)cc1", 7.06),
    ("O=C(NCCc1ccccc1)NCC1CC1CN1CCC(c2noc3ccsc23)CC1 (racemic)", 6.80),
    ("O=C(NC[C@@H]1C[C@H]1CN1CCN(c2csc3cc(C(F)(F)F)ccc23)CC1)Nc1ccc(Oc2ccccc2)cc1", 8.41),
    ("O=C(NCCCCN1CCCN(c2csc3cc(F)ccc23)CC1)Nc1cccc(Cl)c1", 8.10),
    ("O=C(NCCCCN1CCN(c2noc3ccsc23)CC1)Nc1cccc(Cl)c1", 8.31),
    ("O=C(NCCCCN1CCCN(c2noc3ccsc23)CC1)Nc1ccc(F)cc1", 6.13),
    ("O=C(NCCCCN1CCCN(c2csc3cc(F)ccc23)CC1)Nc1ccc(C(F)(F)F)cc1", 7.68),
]
